# credit: paper PMC10786891

- TARGET OF ASSAY: T1, EsCas13d, nuclease-dead (Eubacterium siraeum, UniProt B0MS50, R295A;H300A;R849A;H854A)
- T1 sequence: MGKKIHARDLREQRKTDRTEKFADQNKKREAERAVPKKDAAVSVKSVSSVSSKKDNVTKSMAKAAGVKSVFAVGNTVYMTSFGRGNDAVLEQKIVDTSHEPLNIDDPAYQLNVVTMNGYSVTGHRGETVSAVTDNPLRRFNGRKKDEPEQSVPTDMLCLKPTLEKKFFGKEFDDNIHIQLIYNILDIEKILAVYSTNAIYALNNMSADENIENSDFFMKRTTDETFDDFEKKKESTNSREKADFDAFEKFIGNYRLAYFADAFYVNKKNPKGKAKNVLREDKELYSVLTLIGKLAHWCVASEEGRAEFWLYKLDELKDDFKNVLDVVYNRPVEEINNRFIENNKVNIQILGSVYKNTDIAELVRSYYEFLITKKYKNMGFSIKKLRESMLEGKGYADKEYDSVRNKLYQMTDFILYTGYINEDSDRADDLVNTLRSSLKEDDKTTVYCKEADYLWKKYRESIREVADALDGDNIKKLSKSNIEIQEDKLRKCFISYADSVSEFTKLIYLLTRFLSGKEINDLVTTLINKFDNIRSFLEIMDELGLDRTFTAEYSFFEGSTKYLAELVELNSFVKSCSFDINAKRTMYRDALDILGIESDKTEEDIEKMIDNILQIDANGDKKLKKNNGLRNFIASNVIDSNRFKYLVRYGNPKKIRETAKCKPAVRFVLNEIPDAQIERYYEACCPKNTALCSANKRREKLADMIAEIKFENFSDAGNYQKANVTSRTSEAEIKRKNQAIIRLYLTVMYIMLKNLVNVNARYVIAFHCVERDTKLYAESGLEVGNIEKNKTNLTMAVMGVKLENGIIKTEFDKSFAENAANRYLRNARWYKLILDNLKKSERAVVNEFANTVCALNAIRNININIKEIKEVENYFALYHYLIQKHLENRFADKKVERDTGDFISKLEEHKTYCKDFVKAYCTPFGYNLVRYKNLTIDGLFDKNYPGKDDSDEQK
- ASSAY PROTOCOL: crRNA (strand 1, pre-loaded); Mg2+; 40 mM Tris-HCl pH 7.5, 150 mM NaCl, 6 mM MgCl2, 1 mM DTT, 0.1% Tween-20, 0.2 mg/ml BSA; 25 C; 10 min per concentration, then washed
- MEASUREMENT CONDITIONS: tags: His6-TwinStrep-SUMO cleaved; N-terminal SNAP kept (SNAP-Surface 488); label: 3' end held by stalled T7 RNA polymerase
For each entry below, report its pKd value.
// field semantics: pKd = negative decimal log of concentration (mol/L)

Ask: I am curious: what pKd value has been reported for target 1 A1G,C6G (mixed) RNA 1: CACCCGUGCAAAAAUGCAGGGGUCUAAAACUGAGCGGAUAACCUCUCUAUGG RNA 2: GGGAAUGGAUCCACAUCUACGAAUUCGUACCAUAGAGAGGUUAUCGGCUCGCCGAGAUCGGAAGAGCACACGU ?
Reply: 8.14

Ask: I am curious: what pKd value has been reported for target 1 MT 5'PFS UAA 3'PFS CAG (mixed) RNA 1: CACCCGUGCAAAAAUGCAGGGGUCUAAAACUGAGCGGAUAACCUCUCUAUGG RNA 2: GGGAAUGGAUCCACAUCUACGAAUUCUAACCAUAGAGAGGUUAUCCGCUCACAGAGAUCGGAAGAGCACACGU ?
Reply: 7.28

Ask: I am curious: what pKd value has been reported for target 1 MT 5'PFS GGA 3'PFS ACG (mixed) RNA 1: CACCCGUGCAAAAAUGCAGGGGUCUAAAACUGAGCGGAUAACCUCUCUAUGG RNA 2: GGGAAUGGAUCCACAUCUACGAAUUCGGACCAUAGAGAGGUUAUCCGCUCAACGAGAUCGGAAGAGCACACGU ?
Reply: 7.69

Ask: I am curious: what pKd value has been reported for target 1 insG 3' of 14,insC 3' of 3 (mixed) RNA 1: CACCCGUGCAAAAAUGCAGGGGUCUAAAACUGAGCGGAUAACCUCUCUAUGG RNA 2: GGGAAUGGAUCCACAUCUACGAAUUCGUACCAUAGAGAGGGUUAUCCGCUCCACCGAGAUCGGAAGAGCACACGU ?
Reply: 7.98
